Measured Target: Human NHE3 (Homo sapiens, UniProt P48764)
Construct: expressed in transfected cells; host or cells: Opossum kidney (OK) cells (ATCC), electroporation
Sequence (P48764 26-834): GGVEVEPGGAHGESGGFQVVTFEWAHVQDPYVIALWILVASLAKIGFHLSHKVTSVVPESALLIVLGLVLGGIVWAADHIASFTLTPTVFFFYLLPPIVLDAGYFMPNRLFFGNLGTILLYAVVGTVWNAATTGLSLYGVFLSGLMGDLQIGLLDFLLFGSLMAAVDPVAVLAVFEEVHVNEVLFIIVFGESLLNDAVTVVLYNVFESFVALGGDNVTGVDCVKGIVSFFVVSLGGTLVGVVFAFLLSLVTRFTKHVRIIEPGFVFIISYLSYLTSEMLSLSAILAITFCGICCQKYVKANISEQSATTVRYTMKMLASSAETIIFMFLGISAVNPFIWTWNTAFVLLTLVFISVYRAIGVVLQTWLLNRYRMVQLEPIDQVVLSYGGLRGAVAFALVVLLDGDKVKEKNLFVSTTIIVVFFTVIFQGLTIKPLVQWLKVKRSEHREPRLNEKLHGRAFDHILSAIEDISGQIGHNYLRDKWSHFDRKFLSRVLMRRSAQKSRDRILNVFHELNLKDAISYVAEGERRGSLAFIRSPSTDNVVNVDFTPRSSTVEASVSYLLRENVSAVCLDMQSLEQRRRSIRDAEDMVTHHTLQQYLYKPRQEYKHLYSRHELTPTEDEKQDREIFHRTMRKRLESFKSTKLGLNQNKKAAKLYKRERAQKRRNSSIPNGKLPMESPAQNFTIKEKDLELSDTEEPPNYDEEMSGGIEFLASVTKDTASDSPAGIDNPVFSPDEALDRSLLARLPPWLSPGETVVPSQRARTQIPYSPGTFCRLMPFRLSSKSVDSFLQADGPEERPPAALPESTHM
Test Name: Cell-based NHE3 activity under prompt conditions (OK cells, BCECF pH recovery), human NHE3
Assay Setup: prompt conditions
Experimental Endpoint: Prompt Human NHE3 pIC50

| Chemical String | Measured Target | Val |
| --- | --- | --- |
| CN(C)[C@H]1Cc2c(Cl)cc(Cl)cc2[C@@H]1Oc1ccc(S(=O)(=O)NCCOCCOCCNC(=O)COCC(=O)NCCOCCOCCNS(=O)(=O)c2ccc(O[C@H]3c4cc(Cl)cc(Cl)c4C[C@@H]3N(C)C)cc2)cc1 | Human NHE3 (Homo sapiens, UniProt P48764) | 8.00 |
| CN(C)[C@H]1Cc2c(Cl)cc(Cl)cc2[C@@H]1Oc1ccc(S(=O)(=O)NCCOCCOCCNC(=O)Nc2ccc(NC(=O)NCCOCCOCCNS(=O)(=O)c3ccc(O[C@H]4c5cc(Cl)cc(Cl)c5C[C@@H]4N(C)C)cc3)cc2)cc1 | Human NHE3 (Homo sapiens, UniProt P48764) | 8.70 |
| CN1Cc2c(Cl)cc(Cl)cc2[C@H](c2cccc(S(=O)(=O)NCCOCCOCCNC(=O)CCC(CCC(=O)NCCOCCOCCNS(=O)(=O)c3cccc([C@@H]4CN(C)Cc5c(Cl)cc(Cl)cc54)c3)(CCC(=O)NCCOCCOCCNS(=O)(=O)c3cccc([C@@H]4CN(C)Cc5c(Cl)cc(Cl)cc54)c3)NC(=O)NCCN3CCOCC3)c2)C1 | Human NHE3 (Homo sapiens, UniProt P48764) | 7.77 |
| N=C(N)Nc1nc(-c2cccc(N3CCN(CCOCCOCCOCCNC(=O)CCOCCOCCOCCOCCOCCOCCOCCC(=O)NCCOCCOCCOCCN4CCN(c5cccc(-c6nc(NC(=N)N)nc7ccc(Cl)cc67)c5)CC4)CC3)c2)c2cc(Cl)ccc2n1 | Human NHE3 (Homo sapiens, UniProt P48764) | 8.40 |
| CN1Cc2c(Cl)cc(Cl)cc2[C@H](c2cccc(S(=O)(=O)NCCOCCOCCNC(=O)NCCCC(N)(CCCNC(=O)NCCOCCOCCNS(=O)(=O)c3cccc([C@@H]4CN(C)Cc5c(Cl)cc(Cl)cc54)c3)CCCNC(=O)NCCOCCOCCNS(=O)(=O)c3cccc([C@@H]4CN(C)Cc5c(Cl)cc(Cl)cc54)c3)c2)C1 | Human NHE3 (Homo sapiens, UniProt P48764) | 7.67 |
| CN1Cc2c(Cl)cc(Cl)cc2[C@H](c2cccc(S(=O)(=O)NCCOCCOCCOCCNC(=O)NCCCN(CCCNC(=O)NCCOCCOCCOCCNS(=O)(=O)c3cccc([C@@H]4CN(C)Cc5c(Cl)cc(Cl)cc54)c3)CCCNC(=O)NCCOCCOCCOCCNS(=O)(=O)c3cccc([C@@H]4CN(C)Cc5c(Cl)cc(Cl)cc54)c3)c2)C1 | Human NHE3 (Homo sapiens, UniProt P48764) | 8.20 |
